Known z-score of a selection of compounds
- System name: Metabotropic glutamate receptor 8 (Rattus norvegicus) (UniProt P70579)
- Sequence (P70579 whole entry, looked up): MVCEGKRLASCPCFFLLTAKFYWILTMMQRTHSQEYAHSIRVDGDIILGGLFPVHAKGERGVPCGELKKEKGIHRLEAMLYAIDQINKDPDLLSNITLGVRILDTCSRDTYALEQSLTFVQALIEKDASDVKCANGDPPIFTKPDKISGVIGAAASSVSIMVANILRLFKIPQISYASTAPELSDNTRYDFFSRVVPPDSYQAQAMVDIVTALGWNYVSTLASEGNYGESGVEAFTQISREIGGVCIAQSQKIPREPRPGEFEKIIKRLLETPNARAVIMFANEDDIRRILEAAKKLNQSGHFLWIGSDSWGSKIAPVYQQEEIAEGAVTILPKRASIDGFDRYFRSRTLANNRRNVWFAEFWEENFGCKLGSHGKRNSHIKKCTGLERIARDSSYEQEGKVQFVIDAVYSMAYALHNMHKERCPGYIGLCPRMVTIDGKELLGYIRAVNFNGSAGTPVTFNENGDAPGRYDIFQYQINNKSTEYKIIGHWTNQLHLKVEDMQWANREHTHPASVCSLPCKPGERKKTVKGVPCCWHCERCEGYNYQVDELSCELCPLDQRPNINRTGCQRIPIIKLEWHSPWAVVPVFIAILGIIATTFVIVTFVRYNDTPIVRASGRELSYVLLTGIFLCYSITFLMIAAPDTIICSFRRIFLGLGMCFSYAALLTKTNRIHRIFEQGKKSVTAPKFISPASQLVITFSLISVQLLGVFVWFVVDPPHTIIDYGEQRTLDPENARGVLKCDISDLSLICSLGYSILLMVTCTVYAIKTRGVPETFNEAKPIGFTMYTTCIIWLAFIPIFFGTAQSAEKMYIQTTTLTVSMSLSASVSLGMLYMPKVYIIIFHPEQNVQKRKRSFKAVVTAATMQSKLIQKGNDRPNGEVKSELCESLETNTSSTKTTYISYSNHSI
- Test protocol: mGluR8 Gi/Go-coupled signaling modulation – cell-based, rat, thallium flux, HTS, primary screen (AID 488969)
- Assay conditions: HEK293 rat mGluR8, GIRK thallium flux, FluoZin2; at 10 µM; stronger effect = higher value; submaximal glutamate (EC20) added with thallium
The full ranking holds about 110,000 compounds; the median of “z-score” is about -0.1, and the highest 2% start at about 2. Only a selection was taken, and the highest values are over-represented in it overall. Active and inactive are the calls of the source.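 The calls were made as follows: active = z-score in the third read window above 3 or below -3; inactive = the rest.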

Please review the entries below; each comes with its answer.
>>> endpoint_value("CCN(C(=O)C1CCN(S(=O)(=O)c2cccc3nonc23)CC1)c1ccccc1")
-0.39
>>> endpoint_value("CCOc1ccc(OCCSc2nc3ccccc3c(=O)[nH]2)cc1")
-0.398
>>> endpoint_value("COc1ccc(OCCCN2CCCCCC2)cc1")
"8.02 (active)"
>>> endpoint_value("O=C(/C=C/c1ccccc1)NC(NC(=S)Nc1ccc(Cl)cc1Cl)C(Cl)(Cl)Cl (stereo not given)")
0.717
>>> endpoint_value("COc1ccc2nc(/N=C/c3c(C)[nH]n(-c4ccc(C)cc4)c3=O)sc2c1")
"9.39 (active)"

Which measured z-score value corresponds to Cc1ccc(S(=O)(=O)CCc2nc3ccccc3s2)cc1C ? -0.169

Quick one: z-score of CCOC(=O)/C=C1\CC(=O)Nc2cc(C)c(C)cc2N1 ? 0.197

I'd like to know its z-score. The compound in question is Cc1nn(CCC#N)c(NC(=O)c2ccc(Cl)cc2Cl)c1P(=O)(Nc1ccc([N+](=O)[O-])cc1)N1CCOCC1 (stereo not given) -0.0204

Look up z-score for this compound: COc1ccc2nc(/N=C/c3c(C)[nH]n(-c4ccc(C)cc4C)c3=O)sc2c1 15.7 (active)

Quick one: z-score for COc1ccc(NC(=S)NC(NC(=O)/C=C/c2ccccc2)C(Cl)(Cl)Cl)cc1 (stereo not given) ? 1.83

----------
- System name: Metabotropic glutamate receptor 8 (Rattus norvegicus)
- Test protocol: mGluR8 Gi/Go-coupled signaling modulation – cell-based, rat, thallium flux, HTS, primary screen (AID 488969)
- Assay conditions: HEK293 rat mGluR8, GIRK thallium flux, FluoZin2; at 10 µM; stronger effect = higher value; submaximal glutamate (EC20) added with thallium
Over roughly 110,000 compounds, “z-score” has its median near -0.1; the highest 2% begin near 2. Many of the other results were omitted from the sample, so the highest values are more common in it than they were.
Think of -0.03 as a floor: if z-score stands on it or above, it is Yes; beneath it, No.

Illustrative cases are given below, each with its answer.
>>> group_label("COc1cc(C(=O)NCCc2ccc3c(c2)OCCO3)ccc1OCC(=O)N1CCOCC1")
"Yes"
>>> group_label("OCCNCCCOc1ccc(Cl)cc1Br")
"Yes"
>>> group_label("O=C(c1ccccc1[N+](=O)[O-])N1CCC(Cc2ccccc2)CC1")
"No"

Check this molecule for z-score at or above -0.03: Cc1cc(C(=O)N2CCC(Cc3ccccc3)CC2)ccc1[N+](=O)[O-] No

----------
- System name: Metabotropic glutamate receptor 8 (Rattus norvegicus) (UniProt P70579)
- Test protocol: mGluR8 Gi/Go-coupled signaling modulation – cell-based, rat, thallium flux, HTS, primary screen (AID 488969)
- Assay conditions: HEK293 rat mGluR8, GIRK (G protein-gated inwardly rectifying potassium channel) thallium flux, FluoZin2; at 10 µM; stronger effect = higher value; submaximal glutamate (EC20) added with thallium
In all, about 110,000 compounds were measured (“z-score”: median about -0.1, highest 2% from about 2 on). The full list was thinned out, with the highest values kept by preference.
Reported z-score values for the following compounds.
Could you respond with only the numeric value?

Here are 10 compounds together with their reported answers.
>>> endpoint_value("Cc1nnc(SCC(=O)N2CCCc3ccccc32)[nH]c1=O")
-0.411
>>> endpoint_value("CCn1c(SC(C)C(=O)OC)nnc1-c1c[nH]c2ccccc12 (stereo unspecified)")
-0.657
>>> endpoint_value("O=C(CSc1nc(-c2ccccc2)cc(=O)[nH]1)N1CCc2ccccc21")
9.86
>>> endpoint_value("CCc1nnc(NC(=O)CSc2nnc(-c3c[nH]c4ccccc34)n2CC)s1")
5.79
>>> endpoint_value("O=C(COc1ccc(Cl)cc1)Nc1c(-c2cccs2)nc2ccccn12")
-0.182
>>> endpoint_value("Cc1cc(=O)[nH]c(SCC(=O)N2CCCc3ccccc32)n1")
0.265
>>> endpoint_value("O=C(COC(=O)CCC1CCCC1)Nc1ccc(Cl)cc1F")
-0.306
>>> endpoint_value("O=C(CSc1nc(O)cc(=O)[nH]1)N1CCCc2ccccc21")
-0.65
>>> endpoint_value("CCc1c(C)nc(SCC(=O)N2CCc3ccccc32)[nH]c1=O")
4.54
>>> endpoint_value("CCc1nnc(NC(=O)CSc2nnc(-c3ccccc3O)n2CC)s1")
-0.195

// query z-score value for entry O=C(COC(=O)CCC1CCCC1)Nc1nc2c(F)c(F)c(F)cc2s1 2.48
